Listing of recorded pIC50 by entry.
# Tested on: K562
# test_description: Cytotoxicity against human etoposide-sensitive K562 cells after 72 hrs by CellTiter96 AQueous one solution cell proliferation assay
# Assay type: functional, cell-based
# test_settings: K562, 72 h
pIC50: −log10 of the molar value.

| compound | pIC50 |
| --- | --- |
| COc1cc2c(O[C@@H]3OC[C@H](OC(C)=O)[C@H](OC(C)=O)[C@H]3OC(C)=O)c3c(c(-c4ccc5c(c4)OCO5)c2cc1OC)C(=O)OC3 | 6.07 |
| COc1cc([C@@H]2c3cc4c(cc3[C@@H](O[C@@H]3O[C@@H]5CO[C@@H](C)O[C@H]5[C@H](O)[C@H]3O)[C@H]3COC(=O)[C@H]23)OCO4)cc(OC)c1O [ETOPOSIDE] | 5.91 |
| COc1cc2c(O)c3c(c(-c4ccc5c(c4)OCO5)c2cc1OC)C(=O)OC3 [DIPHYLLIN] | 5.62 |
| COc1cc2c(O[C@@H]3OC[C@@H](OC)[C@H](OC)[C@H]3OC)c3c(c(-c4ccc5c(c4)OCO5)c2cc1OC)C(=O)OC3 | 6.33 |
| COc1cc2c(O[C@@H]3OC[C@H](OC)[C@H](OC)[C@H]3OC)c3c(c(-c4ccc5c(c4)OCO5)c2cc1OC)C(=O)OC3 | 5.90 |

----------
# Test system: MDA-MB-231
# test_description: Cytotoxicity against human MDA-MB-231 cells after 72 hrs by CellTiter96 AQueous one solution cell proliferation assay
# Assay type: functional, cell-based
# test_settings: MDA-MB-231, 72 h
Listing of recorded IC50 by entry.

| compound | test_target | IC50 |
| --- | --- | --- |
| COc1cc2c(O[C@@H]3OC[C@H](OC(C)=O)[C@H](OC(C)=O)[C@H]3OC(C)=O)c3c(c(-c4ccc5c(c4)OCO5)c2cc1OC)C(=O)OC3 | MDA-MB-231 | 1000 nM |
| COc1cc2c(O[C@@H]3OC[C@@H](OC(C)=O)[C@H](OC(C)=O)[C@H]3OC(C)=O)c3c(c(-c4ccc5c(c4)OCO5)c2cc1OC)C(=O)OC3 | MDA-MB-231 | 5100 nM |
| COc1cc2c(O[C@@H]3O[C@H](COC(C)=O)[C@@H](O[C@@H]4O[C@H](COC(C)=O)[C@H](OC(C)=O)[C@H](OC(C)=O)[C@H]4OC(C)=O)[C@H](OC(C)=O)[C@H]3OC(C)=O)c3c(c(-c4ccc5c(c4)OCO5)c2cc1OC)C(=O)OC3 | MDA-MB-231 | > 10000 nM |
| COc1cc2c(O[C@H]3OC[C@@H](OC(C)=O)[C@@H](OC(C)=O)[C@@H]3OC(C)=O)c3c(c(-c4ccc5c(c4)OCO5)c2cc1OC)C(=O)OC3 | MDA-MB-231 | 2200 nM |
| COc1cc2c(O[C@@H]3OC[C@H](OC)[C@H](OC)[C@H]3OC)c3c(c(-c4ccc5c(c4)OCO5)c2cc1OC)C(=O)OC3 | MDA-MB-231 | 650 nM |
